Where these numbers come from: BigSolDB 2.1

Settings: in methyl acetate, 288.15 K
READOUT LABEL: solubility (mole fraction)
Give the figure by itself; no unit, no explanation.

Return solubility (mole fraction) for the following molecule: CCOc1ccc(C=O)cc1O
0.0205

----------
Details: in THF, 308.15 K
READOUT LABEL: solubility (mole fraction)
Give the figure by itself; no unit, no explanation.

Return solubility (mole fraction) for the following compound: CCOc1ccc(C=O)cc1O
0.108

----------
Conditions: in isopropanol, 308.15 K
READOUT LABEL: solubility (mole fraction)

Return solubility (mole fraction) for the following compound: CCOc1ccc(C=O)cc1O
0.0129

----------
Conditions: in toluene, 293.15 K
READOUT LABEL: solubility (mole fraction)

Return solubility (mole fraction) for the following molecule: CCOc1ccc(C=O)cc1O
0.0042

----------
Details: in ethyl acetate, 313.15 K
READOUT LABEL: solubility (mole fraction)
Give the figure by itself; no unit, no explanation.

Return solubility (mole fraction) for the following molecule: CCOc1ccc(C=O)cc1O
0.0416

----------
Settings: in isopropyl acetate, 293.15 K
READOUT LABEL: solubility (mole fraction)
Give the figure by itself; no unit, no explanation.

Return solubility (mole fraction) for the following compound: CCOc1ccc(C=O)cc1O
0.0187

----------
Details: in THF, 283.15 K
READOUT LABEL: solubility (mole fraction)
Give the figure by itself; no unit, no explanation.

Return solubility (mole fraction) for the following molecule: CCOc1ccc(C=O)cc1O
0.0523

----------
Conditions: in acetone, 288.15 K
READOUT LABEL: solubility (mole fraction)
Give the figure by itself; no unit, no explanation.

Return solubility (mole fraction) for the following compound: CCOc1ccc(C=O)cc1O
0.0467

----------
Conditions: in ethanol, 293.15 K
READOUT LABEL: solubility (mole fraction)
Give the figure by itself; no unit, no explanation.

Return solubility (mole fraction) for the following compound: CCOc1ccc(C=O)cc1O
0.0101

----------
Conditions: in acetonitrile, 298.15 K
READOUT LABEL: solubility (mole fraction)
Give the figure by itself; no unit, no explanation.

Return solubility (mole fraction) for the following compound: CCOc1ccc(C=O)cc1O
0.0191

----------
Details: in ethyl formate, 318.15 K
READOUT LABEL: solubility (mole fraction)

Return solubility (mole fraction) for the following compound: CCOc1ccc(C=O)cc1O
0.0488

----------
Details: in isopropanol, 288.15 K
READOUT LABEL: solubility (mole fraction)

Return solubility (mole fraction) for the following compound: CCOc1ccc(C=O)cc1O
0.005

----------
Settings: in acetone, 303.15 K
READOUT LABEL: solubility (mole fraction)
Give the figure by itself; no unit, no explanation.

Return solubility (mole fraction) for the following compound: CCOc1ccc(C=O)cc1O
0.0652

----------
Details: in isopropanol, 303.15 K
READOUT LABEL: solubility (mole fraction)
Give the figure by itself; no unit, no explanation.

Return solubility (mole fraction) for the following compound: CCOc1ccc(C=O)cc1O
0.01

----------
Conditions: in isopropyl acetate, 308.15 K
READOUT LABEL: solubility (mole fraction)

Return solubility (mole fraction) for the following compound: CCOc1ccc(C=O)cc1O
0.0274

----------
Settings: in ethyl acetate, 288.15 K
READOUT LABEL: solubility (mole fraction)
Give the figure by itself; no unit, no explanation.

Return solubility (mole fraction) for the following compound: CCOc1ccc(C=O)cc1O
0.0194
